# subjectOfTest: human β3 adrenergic receptor (Homo sapiens, UniProt P13945)
# Construct: Full length β3 AR clones (402 amino acids) containing the last 6 amino acids of hβ3-AR are prepared; expressed in transfected cells; host or cells: CHO (Chinese hamster ovary) cells
# Sequence (P13945 whole entry): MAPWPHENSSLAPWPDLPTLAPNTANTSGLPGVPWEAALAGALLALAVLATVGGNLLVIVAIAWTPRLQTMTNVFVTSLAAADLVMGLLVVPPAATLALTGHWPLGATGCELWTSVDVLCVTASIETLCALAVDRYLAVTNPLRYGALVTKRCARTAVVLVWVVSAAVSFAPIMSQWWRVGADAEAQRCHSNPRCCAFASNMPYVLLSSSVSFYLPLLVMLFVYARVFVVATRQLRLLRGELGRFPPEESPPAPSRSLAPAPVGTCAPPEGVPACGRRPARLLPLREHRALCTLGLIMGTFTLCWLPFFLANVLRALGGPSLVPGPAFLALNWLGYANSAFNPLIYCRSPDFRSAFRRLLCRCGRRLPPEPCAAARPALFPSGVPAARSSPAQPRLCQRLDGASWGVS
# procedureSummary: cAMP (SPA) response in CHO cells transfected with human β3 adrenergic receptor
# Assay type: cell-based
# Design: key: fraction of maximal isoproterenol (10^-5 M) response
# experimentalContext: maximal response relative to maximal response of isoproterenol at 10^-5 M
The following molecules are listed with their measured IA(β3) values.
Reply briefly: the number, and no unit.

Some entries whose results are on file:
# molecule, result
measured = [
    ("O=C1NC(=O)C(Cc2ccc(N3CCC(NC[C@H](O)c4ccc(O)c(NS(=O)(=O)c5ccccc5)c4)CC3)cc2)S1 (stereo partly shown) [Example 96]", 0.93),
    ("COc1ccc(S(=O)(=O)Nc2ccc(N3CCC(NC[C@H](O)COc4cccc5[nH]c(=O)[nH]c45)CC3)cc2)cc1 [Example 330]", 0.98),
    ("CS(=O)(=O)Nc1cc(C(O)CNC2CCN(c3ccc(C=C4SC(=O)NC4=O)cc3Br)CC2)ccc1O (stereo not shown) [Example 70]", 1.2),
]

The reported value for CS(=O)(=O)Nc1cc(C(O)CNC2CCN(c3ccc(C=C4SC(=O)NC4=O)cc3F)CC2)ccc1O (stereo not shown) [Example 71] in terms of IA(β3) is 1.2

Consider CC(C)(C)OC(=O)CN1C(=O)SC(Cc2ccc(N3CCC(NC[C@H](O)c4ccc(O)c(NS(C)(=O)=O)c4)CC3)cc2)C1=O (stereo partly shown) [Example 64] . Its measured IA(β3) is 1

Notebook: COc1ccc(S(=O)(=O)Nc2ccc(N3CCC(NCC(O)c4ccc(O)c(NS(C)(=O)=O)c4)CC3)cc2)cc1OC (stereo not shown) [Example 280] , IA(β3) read as 1.16

The reported IA(β3) of the molecule COC(=O)CNC(=O)c1ccc(N2CCC(NC[C@H](O)c3ccc(O)c(NS(C)(=O)=O)c3)CC2)cc1 [Example 208] was 0.97

Note to self: IA(β3) recorded for O=S(=O)(Nc1ccc(N2CCC(NC[C@H](O)COc3ccccc3)CC2)cc1)c1ccc(Oc2ncc(C(F)(F)F)cc2Cl)cc1 [Example 346] was 0.76

IA(β3) reported for this molecule COC(=O)C1(NC(=O)c2ccc(N3CCC(NC[C@H](O)c4ccc(O)c(NS(C)(=O)=O)c4)CC3)cc2)CC1 [Example 206] : 0.94

Noted for CC(=O)Nc1ccc(S(=O)(=O)Nc2ccc(N3CCC(NC[C@H](O)c4ccccc4)CC3)cc2)cc1 [Example 258] : its IA(β3) reads 0.7

The reported IA(β3) of the molecule COc1ccc(OC)c(S(=O)(=O)Nc2ccc(N3CCC(NC[C@H](O)c4ccc(O)c(NS(C)(=O)=O)c4)CC3)cc2)c1 [Example 335] was 0.98

Ref: patent US7022716B2
